assay.summary: qHTS assay to identify small molecule agonists of the constitutive androstane receptor (CAR) signaling pathway - cell viability counter screen (AID 1224836); further: nearly all actives have a fitted effect of over 45% in size
reported.conditions: HepG2-CYP2B6-hCAR viability, CellTiter-Fluor, 23 h, PK11195 added to every well; series mostly up to 92.4 µM
Inconclusive results are not listed. Active and inactive are the calls of the source. The call rests on the fitted dose curve; in most records, active means well fitted cell-killing curve with a large enough effect in the repeat runs; inconclusive means weak or mixed curves, or effect the other way; inactive means flat fitted curve, though single readings scatter.
Labels: active, inactive

* O=C(N/N=C/c1ccc([N+](=O)[O-])o1)c1cc([N+](=O)[O-])cc([N+](=O)[O-])c1O | active
* NC(=O)CF | inactive
* C#CC(O)(C=CCl)CC (centres undefined) | inactive
* C[N+](C)(C)CCOC(=O)C(O)(c1ccccc1)c1ccccc1 | inactive

---

assay.summary: qHTS assay for small molecule agonists of the antioxidant response element (ARE) signaling pathway - cell viability counter screen (AID 743203); further: nearly all actives have a fitted effect of over 55% in size
reported.conditions: ARE-bla HepG2 viability, CellTiter-Glo luminescence, 16 h; series mostly up to 73.3 µM
Records with an inconclusive call do not appear. Activity calls are given as the source filed them. Calls follow the shape of the full dose curve.
Labels: t (active), f (inactive)

• C[C@]12C=CC3=C4CCC(=O)C=C4CC[C@H]3[C@@H]1CC[C@@H]2O = f
• CCC1(C2=NCCN2)Cc2ccccc2O1 (configuration not stated) = f
• O=C(NC(=O)c1cc(F)c(F)cc1Cl)Nc1cc(F)ccc1N1CCC(C(=O)O)CC1 = f
• CCC1(CCC(C)C)C(=O)NC(=O)NC1=O = f
• CCOC(=O)c1cn2nc(OP(=S)(OCC)OCC)cc2nc1C = f
• CC(C)(C)c1ccc(CCOc2ncnc3ccccc23)cc1 = f
• CC(C)(C)NCC(O)c1cc(Cl)c(N)c(C(F)(F)F)c1 (configuration not stated) = f
• O=C(CCl)CCl = t
• CC(C)(C)NCC(O)c1ccccc1Cl (configuration not stated) = f
• CCCBr = f
• Cc1ncc(C[n+]2csc(CCO)c2C)c(N)n1 = f
• CN(C)N = f
• C1CS1 = f
• O=C(O)C(F)(F)C(F)(F)C(F)(F)C(F)(F)C(F)(F)C(F)(F)C(F)(F)C(F)(F)F = t
• c1ccc2sc(SNC3CCCCC3)nc2c1 = f
• Cc1ccc(N)c(C)c1 = f
• COc1cc(C[C@@H](C)N)c(OC)cc1Br = f
• CC(C)c1ccc(OP(=O)(Oc2ccc(C(C)C)cc2)Oc2ccc(C(C)C)cc2)cc1 = f
• Nc1ccccc1C(=O)OCCc1ccccc1 = f
• CN(C1CCCCC1)C1CCCCC1 = f
• CC(Cc1ccccc1)NCc1ccccc1Cl (configuration not stated) = f
• C=CCSSCC=C = f
• CC(C)(C)N(NC(=O)c1ccc(Cl)cc1)C(=O)c1ccccc1 = f
• Clc1ccc(Cl)c(Cl)c1 = f
• CCCCOC(=O)CCC(=O)OCCCC = f
• CON(C)C(=O)Nc1ccc(Cl)cc1 = f
• CC(C)CCON=O = f
• Clc1ccccc1 = f
• C[C@H]1O[C@H](OC2[C@@H](O)[C@@H](O)C(O)[C@H](O)[C@H]2O)[C@@H](N)C[C@@H]1N=C(N)C(=O)O (some centres not stated) = f
• NP(N)(=O)NC(=O)c1ccc(F)cc1 = f
• CC(Oc1cccc(Cl)c1)C(=O)O (configuration not stated) = f
• N#CC(C#N)=C(C#N)C#N = f
• CCCCCBr = f
• Nc1ccccc1C(=O)OCC(O)CO (configuration not stated) = f
• CCCCC(CC)COC(=O)c1c(Br)c(Br)c(Br)c(Br)c1C(=O)OCC(CC)CCCC (configuration not stated) = f
• CCCN(CCC)c1c([N+](=O)[O-])cc(C(C)C)cc1[N+](=O)[O-] = f
• CCCC[N+](CCCC)(CCCC)CCCC = f
• CC(CC(C(N)=O)(c1ccccc1)c1ccccc1)N(C)C (configuration not stated) = f
• O=C(Cc1ccccc1)OCCc1ccccc1 = f
• CCCC1CCCCN1 (configuration not stated) = f
• O=C(N/N=C/c1ccc([N+](=O)[O-])o1)c1cc([N+](=O)[O-])cc([N+](=O)[O-])c1O = f
• COc1cc(CC#N)cc(OC)c1OC = f
• N#CC(C#N)=Cc1ccc(O)c(O)c1 = f
• CCNC(=O)NC(=O)/C(C#N)=N/OC = f
• FC(F)OC(F)(F)C(F)Cl (configuration not stated) = f
• C[Si](Cn1cncn1)(c1ccc(F)cc1)c1ccc(F)cc1 = f
• SCc1ccccc1 = f
• COc1cc(CC(C)N)c(OC)cc1Br (configuration not stated) = f
• C=CCOCC1CO1 (configuration not stated) = f
• OCCCl = f
• C[C@H]1[C@@H]2Cc3ccc(O)cc3[C@@]1(C)CCN2C = f
• Cc1ccc2c(C)cccc2c1 = f

---

assay.summary: qHTS assay to identify small molecule agonists of the hypoxia (HIF-1) signaling pathway - cell viability counter screen (AID 1224844); further: nearly all actives have a fitted effect of over 50% in size
reported.conditions: HRE-bla ME-180 viability, CellTiter-Glo luminescence, 17 h; series mostly up to 76.8 µM
Results filed as inconclusive are left out. The source made the active and inactive calls. Calls come from the whole dose curve.
Labels: active, inactive

* CN1CC[C@]23c4c5ccc(O)c4O[C@H]2[C@@H](O)C=C[C@H]3[C@H]1C5 | inactive
* Clc1ccc(Cl)c(Cl)c1 | inactive
* CCCCC(CC)COC(=O)c1c(Br)c(Br)c(Br)c(Br)c1C(=O)OCC(CC)CCCC (centres undefined) | inactive
* C[C@]12C=CC3=C4CCC(=O)C=C4CC[C@H]3[C@@H]1CC[C@@H]2O | inactive
* O=S(=O)(Cl)Cl | inactive
* CC(C)(C#N)C(C)(C)C#N | inactive
* CON(C)C(=O)Nc1ccc(Cl)cc1 | inactive
* O=C(CCl)CCl | active
* CC(Oc1cc(Cl)c(Cl)cc1Cl)C(=O)O (centres undefined) | inactive

---

tgt: Cytochrome P450 1A2 (Homo sapiens) (UniProt P05177)
Sequence (P05177 whole entry, looked up): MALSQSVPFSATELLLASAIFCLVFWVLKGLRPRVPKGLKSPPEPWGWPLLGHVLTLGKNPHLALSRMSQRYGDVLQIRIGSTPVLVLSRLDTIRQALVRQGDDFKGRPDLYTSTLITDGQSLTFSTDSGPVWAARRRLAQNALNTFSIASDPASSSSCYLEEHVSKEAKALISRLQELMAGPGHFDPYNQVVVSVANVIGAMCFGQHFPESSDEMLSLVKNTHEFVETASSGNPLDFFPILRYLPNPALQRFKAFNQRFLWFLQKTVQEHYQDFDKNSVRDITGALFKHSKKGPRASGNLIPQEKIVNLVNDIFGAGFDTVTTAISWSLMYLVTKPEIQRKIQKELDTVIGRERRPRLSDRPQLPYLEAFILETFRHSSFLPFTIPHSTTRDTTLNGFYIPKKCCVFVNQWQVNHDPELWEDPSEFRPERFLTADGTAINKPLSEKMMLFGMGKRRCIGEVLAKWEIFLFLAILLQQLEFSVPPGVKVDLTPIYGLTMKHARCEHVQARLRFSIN
assay.summary: Cytochrome P450 Family 1 Subfamily A Member 2 (CYP1A2) small molecule antagonists: luciferase reporter qHTS assay (AID 1671199); further: nearly all actives have a fitted effect of over 50% in size
reported.conditions: P450-Glo CYP1A2 enzyme, luciferin luminescence, 1 h; series mostly up to 115 µM
Records with an inconclusive call do not appear. Activity calls are given as the source filed them. Calls come from the whole dose curve; as a rule, active = well fitted inhibition curve with a large enough effect in the repeat runs; inconclusive = weak or mixed curves; inactive = no such curve, though single readings can be large or run the other way.
Labels: active, inactive

• O=C(NC(=O)c1cc(F)c(F)cc1Cl)Nc1cc(F)ccc1N1CCC(C(=O)O)CC1 = inactive
• C=CC(=O)NC(C)(C)CC(C)=O = inactive
• CC1(C)[C@H](C(=O)O[C@H](C#N)c2cccc(Oc3ccccc3)c2)[C@@H]1C=C(Br)Br = inactive
• O=C(O)COc1cc(Cl)c(Cl)cc1Cl = inactive
• CCCSP(=S)(OCC)Oc1ccc(SC)cc1 (centres undefined) = active
• C[C@H](N)[C@H](O)c1ccc(O)c(O)c1 = inactive
• O=[N+]([O-])c1cc(Cl)c(Cl)cc1Cl = active
• FC(F)OC(F)(F)C(F)Cl (centres undefined) = active
• O=C([O-])c1ccccn1.O=C([O-])c1ccccn1.O=C([O-])c1ccccn1.[Cr+3] = active
• CC(C)(C)NCC(O)c1cc(Cl)c(N)c(C(F)(F)F)c1 (centres undefined) = inactive
• C[C@]12CC[C@H]3[C@@H](CCC4=CC(=O)CC[C@@H]43)[C@@H]1CC[C@@H]2OC(=O)CCc1ccccc1 = inactive
• CN(C)N = active
• O=C(O)C(Cl)(Cl)Br = inactive
• CCOP(=O)(O)C(N)=O = inactive

---

tgt: Nuclear receptor subfamily 1 group I member 3 (Homo sapiens) (UniProt Q14994)
Sequence (Q14994 whole entry, looked up): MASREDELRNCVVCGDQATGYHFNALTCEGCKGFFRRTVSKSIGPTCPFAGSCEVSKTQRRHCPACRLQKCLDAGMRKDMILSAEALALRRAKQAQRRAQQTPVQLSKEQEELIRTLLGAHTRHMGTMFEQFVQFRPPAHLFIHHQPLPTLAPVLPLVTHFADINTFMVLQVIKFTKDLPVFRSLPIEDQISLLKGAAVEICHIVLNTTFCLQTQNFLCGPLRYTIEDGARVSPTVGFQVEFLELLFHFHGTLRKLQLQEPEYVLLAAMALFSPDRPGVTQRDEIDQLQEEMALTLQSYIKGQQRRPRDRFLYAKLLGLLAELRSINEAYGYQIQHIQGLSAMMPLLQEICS
assay.summary: qHTS assay to identify small molecule agonists of the constitutive androstane receptor (CAR) signaling pathway (AID 1224839);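 further: HepG2 cells stably carrying human CAR and a CYP2B6 luciferase reporter; on the % scale 0 is the no-effect control and ±100 the full control effect; nearly all actives have a fitted effect of over 15% in size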
reported.conditions: HepG2 hCAR CYP2B6-luciferase, agonist mode, 24 h; series mostly up to 92.4 µM
Records with an inconclusive call do not appear. Activity calls are given as the source filed them. Calls follow the shape of the dose curve; as a rule, active = well fitted activation curve with a large enough effect in the repeat runs; inconclusive = weak or mixed curves; inactive = no such curve, though single readings can be large or run the other way.
quantity.measured: outcome

- C#C[C@]1(O)CC[C@H]2[C@@H]3CCC4=CC(=O)CCC4=C3C=C[C@@]21CC: inactive
- O=C1c2ccccc2C(=O)N1SC(Cl)(Cl)Cl: inactive
- N#CC(C#N)=Cc1ccc(O)c(O)c1: inactive

---

tgt: Glucocorticoid receptor (Homo sapiens)
assay.summary: qHTS assay to identify small molecule antagonists of the glucocorticoid receptor (GR) signaling pathway (AID 720692)
reported.conditions: GR-bla HeLa, beta-lactamase FRET ratio, dexamethasone-stimulated, 18 h; series mostly up to 58.5 µM
Results filed as inconclusive are left out. Activity calls are given as the source filed them. Calls follow the shape of the dose curve; as a rule, active = well fitted inhibition curve with a large enough effect in the signal ratio in the repeat runs (not every such curve was filed as active); inconclusive = weak or mixed curves, or effect the other way; inactive = no such curve, though single readings can be large or run the other way; the % refers to the signal ratio.
Labels: 1 for active, 0 for inactive

• O=C(O)c1cc(I)cc(I)c1I = 0
• OC[P+](CO)(CO)CO = 0
• CC(C)c1ccc(NC(=O)N(C)C)cc1 = 0
• CN(C)C(=O)Nc1cccc(OC(=O)NC(C)(C)C)c1 = 0
• CCCCC(CC)CO[N+](=O)[O-] (stereo not given) = 0
• CC(C)OC(=O)Cc1ccccc1 = 0
• C=CC(=O)OCC = 0
• CC(Oc1cc(Cl)c(Cl)cc1Cl)C(=O)O (stereo not given) = 0
• CC(C)CCON=O = 0
• CC(C)(C)NCC(O)c1ccccc1Cl (stereo not given) = 0
• Clc1ccccc1 = 0
• CCCCCl = 0
• CCOC(=O)c1cn2nc(OP(=S)(OCC)OCC)cc2nc1C = 0
• C#C[C@]1(O)CC[C@H]2[C@@H]3CCC4=CC(=O)CCC4=C3C=C[C@@]21CC = 1
• O=C(N/N=C/c1ccc([N+](=O)[O-])o1)c1cc([N+](=O)[O-])cc([N+](=O)[O-])c1O = 0
• O=C1CC[C@@]2(O)[C@H]3Cc4ccc(O)c5c4[C@@]2(CCN3CC2CC2)[C@H]1O5 = 0
• CN[C@@H](C)[C@H](O)c1ccccc1 = 0
• OCCSSCCO = 0
• COc1ccccc1N1CCNCC1 = 0
• CN(C)c1ccc(N=O)cc1 = 1
• CCOP(=O)(O)C(N)=O = 0
• CCc1cnc(C2=NC(C)(C(C)C)C(=O)N2)c(C(=O)O)c1 (stereo not given) = 0
• O=C(O)C(F)(F)C(F)(F)C(F)(F)C(F)(F)C(F)(F)F = 0
• C=CCc1ccccc1O = 0
• O=C(NCNC(=O)NC1C(=O)NC(=O)N1CO)NC1C(=O)NC(=O)N1CO (stereo not given) = 0
